Entries and their koff
Target: T1, human soluble ULBP6 haplotype 01 (hULBP6_01) (human, UniProt Q5VY80 27-218, limits assumed)
T1 construct: also called sULBP6_01
T1 chain: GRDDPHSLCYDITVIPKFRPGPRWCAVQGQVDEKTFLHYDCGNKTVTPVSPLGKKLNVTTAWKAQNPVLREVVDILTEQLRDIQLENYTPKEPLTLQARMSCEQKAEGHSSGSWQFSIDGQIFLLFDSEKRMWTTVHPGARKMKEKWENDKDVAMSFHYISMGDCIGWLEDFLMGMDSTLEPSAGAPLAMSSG
Assay: SPR (BIACORE 8K, 37 C); antibody captured on Protein A, soluble ULBP injected;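 also: ligand injected as threefold dilution series in HBS-P (highest 10 or 50 nM), reference-cell and buffer-subtracted sensorgrams fitted with a 1:1 Langmuir model for on and off rates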
I'd appreciate it if you included the unit after the number.

These solved cases illustrate the format of a correct answer.
[
  {
    "binder": "humanized 7B3 (h7B3), Fc version not stated (antibody, V domains shown, Recombinant humanized antibody, hIgG1 backbone with kappa light chain; also called hu7B3; PUR3922) VH: EVQLVESGGGLVQPGGSLRLSCAASGFTFSTYGFHWVRQAPGKGLEWVAYISSNSGTIDYADTVKGRFTISRDNAKNSLYLQMNSLRAEDTAVYYCARQGYGFDNWGQGTTVTVSS VL: DIQLTQSPSSLSASVGDRVTITCSASSRVSYMNWYQQKPGKSPKIWVYGISNLASGVPSRFSGSGSGTDFTFTISSLQPEDIATYYCQQRSSHPLTFGGGTKVEIK",
    "koff": "0.000382 s⁻¹"
  },
  {
    "binder": "humanized 8E11 (h8E11), Fc version not stated (antibody, V domains shown, Recombinant humanized antibody, hIgG1 backbone with kappa light chain; also called PUR3926) VH: EVQLVESGGGLVQPGGSLRLSCAASGFTFRTYGMHWVRQAPGKGLEWVAYISSGSGTIDYADTVKGRFTISRDNAKNSLYLQMNSLRAEDTAVYYCTRQTGAMDYWGQGTLVTVSS VL: EIVLTQSPATLSLSPGERATLSCSASSSVSYMNWYQQKPGQSPRLWIYGISNLASGVPARFSGSGSGTDFTLTISSLEPEDFAVYYCQQRSSHPLTFGGGTKVEIK",
    "koff": "0.000492 s⁻¹"
  },
  {
    "binder": "humanized 1D4 (h1D4), Fc version not stated (antibody, V domains shown, Recombinant humanized antibody, hIgG1 backbone with kappa light chain; also called hiD4; hu1D4) VH: EIQLVQSGSELKKPGASVKVSCKASGYTFTEYPIHWVRQAPGQGFEWMGMIYTDTGEPTHAEEFKGRFVFSLDTSVSTAYLQISSLKAEDTAVYFCVRWYDGSSYIMDYWGQGTTVTVSS VL: DIQMTQSPSSLSASVGDRVTITCKASQDINSYLSWFQQKPGKSPKTLIYRANRLVDGVPSRFSGSGSGQDYTFTISSLQPEDIATYYCLQYDEFPLTFGGGTKVEIK",
    "koff": "0.00114 s⁻¹"
  }
]

## Input Quick one: koff of humanized 6E1 (h6E1), Fc version not stated (antibody, V domains shown, Recombinant humanized antibody, hIgG1 backbone with kappa light chain; also called hu6E1; PUR3993) VH: EVQLVQSGAEVKKPGASVKVSCKASGYTFTNYWMHWMRQAPGQGLEWLGRIHPSDSDTNYNQKFKGRATLTVDKSISTAYMELSRLRSDDTAVYYCAIEGTGKGYFDVWGRGTLVTVSS VL: DIQMTQSPSSLSASVGDRVTITCKASQDIYSYLSWFQQKPGKSPKTLIYRANRLVDGVPSRFSGSGSGQDFTLTISSLQPEDFATYYCLHYDEFPLTFGGGTKVEIK ?
## Output 0.0246 s⁻¹

The measurements presented in this section are drawn from patent US20250084172A1.
